Attribution: ChEMBL document CHEMBL1148395

Biological target: Cannabinoid receptor 1 (Mus musculus) (UniProt P47746)
Sequence (P47746 whole entry, looked up): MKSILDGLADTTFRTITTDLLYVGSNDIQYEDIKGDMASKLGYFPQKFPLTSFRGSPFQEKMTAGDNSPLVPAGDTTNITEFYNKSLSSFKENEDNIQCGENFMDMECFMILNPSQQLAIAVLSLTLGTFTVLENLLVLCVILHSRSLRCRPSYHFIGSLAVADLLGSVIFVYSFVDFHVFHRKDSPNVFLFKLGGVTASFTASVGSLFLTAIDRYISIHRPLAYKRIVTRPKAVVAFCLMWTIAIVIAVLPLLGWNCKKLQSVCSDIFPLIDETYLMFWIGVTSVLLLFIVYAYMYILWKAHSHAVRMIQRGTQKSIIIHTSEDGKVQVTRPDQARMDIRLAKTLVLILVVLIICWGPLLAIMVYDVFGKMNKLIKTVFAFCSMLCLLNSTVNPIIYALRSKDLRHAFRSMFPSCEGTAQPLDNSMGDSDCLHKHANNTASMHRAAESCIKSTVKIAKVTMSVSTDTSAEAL
Test: In vivo least effective dose required to antagonise cannabinoid receptor 1 agonist (WIN-55212) induced hypothermia in mouse upon peroral administration
endpoint label: LED (mg/kg)
Hi! Could you send only the number? It should be in mg/kg, unit omitted.

// field: LED; key: `C/N=C(\NS(=O)(=O)c1ccc(C(F)(F)F)cc1)N1C[C@H](c2ccccc2)C(c2ccc(Cl)cc2)=N1` ; value = 1

The compound listed as C/N=C(\NS(=O)(=O)c1ccc(C(F)(F)F)cc1)N1CC(c2ccccc2)C(c2ccc(Cl)cc2)=N1 (stereo not given) has a reported LED of 3
